Experiment: Herbal drug pharmacokinetic interaction study of sorafenib in rat plasma (Part A)
Assay type: in vivo, Male Sprague-Dawley rats
Conditions: male, Sprague-Dawley, rat, plasma, intravenous, 3 mg/kg
VALUE_TYPE: concentration at 8 min

- CNC(=O)c1cc(Oc2ccc(NC(=O)Nc3ccc(Cl)c(C(F)(F)F)c3)cc2)ccn1: 2840 ng/mL

====

Assay: Herbal drug pharmacokinetic interaction study of sorafenib in rat plasma (Part A)
Type: in vivo, Male Sprague-Dawley rats
Details: male, Sprague-Dawley, rat, plasma, po, 10 mg/kg, Group A3: LDXGT formulation 1 g/kg/day p.o. for 5 consecutive days, then single sorafenib 10 mg/kg p.o.; rat plasma; mean ± SD, n = 6
VALUE_TYPE: AUC (ng·h/mL)

• CNC(=O)c1cc(Oc2ccc(NC(=O)Nc3ccc(Cl)c(C(F)(F)F)c3)cc2)ccn1 = 94200

====

Assay: Herbal drug pharmacokinetic interaction study of sorafenib in rat plasma (Part A)
Format: in vivo, Male Sprague-Dawley rats
Details: male, Sprague-Dawley, rat, plasma, po, 10 mg/kg, Group A2: sorafenib 10 mg/kg, p.o. alone; rat plasma; mean ± SD, n = 6
VALUE_TYPE: AUC (µg·h/mL)

• CNC(=O)c1cc(Oc2ccc(NC(=O)Nc3ccc(Cl)c(C(F)(F)F)c3)cc2)ccn1 = 104

====

Test: Herbal drug pharmacokinetic interaction study of sorafenib in rat plasma (Part A)
Type: in vivo, Male Sprague-Dawley rats
Settings: male, Sprague-Dawley, rat, plasma, iv, 3 mg/kg
VALUE_TYPE: clearance (L/h/kg)

- CNC(=O)c1cc(Oc2ccc(NC(=O)Nc3ccc(Cl)c(C(F)(F)F)c3)cc2)ccn1 [sorafenib, Sorafenib]: 0.066

====

Test: Herbal drug pharmacokinetic interaction study of sorafenib in rat plasma (Part A)
Type: in vivo, Male Sprague-Dawley rats
Conditions: male, Sprague-Dawley, rat, plasma, po, 10 mg/kg, Group A4: LDXGT formulation 2 g/kg/day p.o. for 5 consecutive days, then single sorafenib 10 mg/kg p.o.; rat plasma; mean ± SD, n = 6
VALUE_TYPE: AUC (ng·h/mL)

• CNC(=O)c1cc(Oc2ccc(NC(=O)Nc3ccc(Cl)c(C(F)(F)F)c3)cc2)ccn1 [sorafenib, Sorafenib] = 91500

====

Test: Herbal drug pharmacokinetic interaction study of sorafenib in rat plasma (Part A)
Assay type: in vivo, Male Sprague-Dawley rats
Details: male, Sprague-Dawley, rat, plasma, po, 10 mg/kg, Group A4: LDXGT formulation 2 g/kg/day p.o. for 5 consecutive days, then single sorafenib 10 mg/kg p.o.; rat plasma; mean ± SD, n = 6
VALUE_TYPE: Tmax (h)

* CNC(=O)c1cc(Oc2ccc(NC(=O)Nc3ccc(Cl)c(C(F)(F)F)c3)cc2)ccn1 | 5.17

====

Experiment: Herbal drug pharmacokinetic interaction study of sorafenib in rat plasma (Part A)
Type: in vivo, Male Sprague-Dawley rats
Details: male, Sprague-Dawley, rat, plasma, po, 10 mg/kg; read-out: F (oral bioavailability)
VALUE_TYPE: bioavailability (%)

• CNC(=O)c1cc(Oc2ccc(NC(=O)Nc3ccc(Cl)c(C(F)(F)F)c3)cc2)ccn1 = 50

====

Test: Herbal drug pharmacokinetic interaction study of sorafenib in rat plasma (Part A)
Type: in vivo, Male Sprague-Dawley rats
Details: male, Sprague-Dawley, rat, plasma, po, 10 mg/kg, Group A3: LDXGT formulation 1 g/kg/day p.o. for 5 consecutive days, then single sorafenib 10 mg/kg p.o.; rat plasma; mean ± SD, n = 6
VALUE_TYPE: Cmax (ng/mL)

* CNC(=O)c1cc(Oc2ccc(NC(=O)Nc3ccc(Cl)c(C(F)(F)F)c3)cc2)ccn1 | 4800
